tested on: IGROV1 ovarian; assay: NCI tumour cell line growth inhibition, 48 h
Listed here: items and their measured TGI.
measured_quantity: TGI

INSERT INTO measurements (molecule, experimental_value) VALUES
  ('CC(=O)O[C@H]1C(=O)[C@@]2(C)[C@H]([C@H](OC(=O)c3ccccc3)[C@]3(O)C[C@H](OC(=O)[C@H](O)[C@@H](NC(=O)c4ccco4)c4ccccc4)C(C)=C1C3(C)C)[C@]1(OC(C)=O)CO[C@@H]1C[C@@H]2O', '> 12.5 µM'),
  ('CCOC(=O)/C=C(/C(=O)OCC)n1ccc(=O)n(Cc2cnnn2COCCOC(C)=O)c1=O', '39.3 µM'),
  ('NS(=O)(=O)c1cc(C(=O)O)c(O)c2ccccc12', '> 100 µM'),
  ('CCOC(=O)CC(NC(=O)c1[nH]cnc1/N=N/N(C)C)C(=O)OCC (centres undefined)', '> 100 µM');

---

tested on: RPMI-8226 leukemia; experiment: NCI tumour cell line growth inhibition, 48 h
measured_quantity: TGI

INSERT INTO assay_data (molecule, experimental_value) VALUES
  ('CC(C)COc1nc2c(c(=O)n(C)c(=O)n2C)n1C', '> 100 µM'),
  ('Cc1cc(Nc2nc(N[C@@H](C)c3ncc(F)cn3)ncc2Cl)n[nH]1', '> 100 µM'),
  ('COc1cc(/C=N/N=C(\N)NO)c(Cl)cc1O', '> 100 µM'),
  ('CC(=O)NC(NCCN)(c1ccccc1)c1ccccc1', '> 100 µM'),
  ('NC1CCC(N(CC(=O)O)CC(=O)O)C(N(CC(=O)O)CC(=O)O)C1 (stereo not drawn)', '> 100 µM'),
  ('CSc1nc2c(c(=O)n1C)N=C(c1ccc([N+](=O)[O-])cc1)CC(c1ccccc1)N2 (stereo not drawn)', '> 100 µM'),
  ('Nc1ncnc2c1ncn2C1CCC(CP(=O)(O)O)C1 (stereo not drawn)', '> 100 µM'),
  ('COc1c(-c2ccccc2)nc2ccc(Oc3ccccc3)nn12', '> 70.9 µM'),
  ('COc1cc2c(c(OC)c1OC)-c1ccc(SC)c(=O)cc1[C@@H](O)CC2', '> 100 µM'),
  ('CC(C)(Cl)C(Br)CCC(Br)(CCl)C(Cl)CBr (stereo not drawn)', '> 10 µM'),
  ('Cc1cc(=O)oc2cc(OCC(O)COC(C)C)ccc12 (stereo not drawn)', '> 100 µM'),
  ('CCOC(=O)/C(=N/Nc1ccccc1)N1C(=S)C=C(C)NN(C)C1=S', '> 100 µM'),
  ('COC(=O)C1C(=O)O[C@@H](c2cc(OC)c(OC)cc2OC)C1C(=O)OC (mixture of isomers)', '> 100 µM'),
  ('Nc1ccccc1C(=O)CCC1C(=O)NC(=S)NC1=O', '> 100 µM'),
  ('CN(C)c1c(C2OC(CO)C(O)C2O)c(=O)c1=O (stereo not drawn)', '> 100 µM'),
  ('O=c1c(Cl)c(Cl)cnn1CCCl', '> 47.1 µM'),
  ('CSc1ccc(Nc2cc(=O)[nH]c(=O)[nH]2)cc1', '> 100 µM'),
  ('Cc1cc(Nc2cc(N3CCN(C)CC3)nc(/C=C/c3ccccc3)n2)n[nH]1', '> 3.14 µM');
